Just for reference, paper PMC9037101 is where these values come from.

assay type: in vivo, Sprague-Dawley (SD) rats; conditions: male, Sprague-Dawley, rat, plasma, po, 15 mL kg^−1
quantity kind: half-life (min)
The reply should be a number in min, with the unit left off.

- compound: "O=c1cc(-c2ccc(O)cc2)oc2cc(O)cc(O)c12 [Apigenin, apigenin]"
  u: "min"
  half-life: 298
- compound: "COc1ccc(-c2cc(=O)c3c(O)cc(O)cc3o2)cc1 [Acacetin, acacetin]"
  u: "min"
  half-life: 96.9
- compound: "O=c1cc(-c2ccc(O)c(O)c2)oc2cc(O)cc(O)c12 [Luteolin, luteolin]"
  u: "min"
  half-life: 36.1
- compound: "C[C@@H]1O[C@@H](O[C@@H]2[C@@H](O)[C@H](OCCc3ccc(O)c(O)c3)O[C@H](CO)[C@H]2OC(=O)/C=C/c2ccc(O)c(O)c2)[C@H](O)[C@H](O)[C@H]1O [Acteoside, acteoside]"
  u: "min"
  half-life: 46.8

Problem: half-life lookup needed for O=c1c(O)c(-c2ccc(O)c(O)c2)oc2cc(O)cc(O)c12 [Quercetin, quercetin] , thanks.
Solution: 46

* * *

experiment: Stability of the analytes in rat plasma QC samples; type: in vitro ADME; conditions: relative error, 3 free thaw cycles, high QC spiked concentration
Free-thaw stability: Accuracy values by entry
Your answer is read as %, so omit the unit and give the number.

Recorded results for 5 compounds are shown here.
- compound: "O=c1cc(-c2ccc(O)cc2)oc2cc(O)cc(O)c12"
  quantity kind: "Free-thaw stability: Accuracy"
  reported measurement: 5.51
- compound: "O=c1c(O)c(-c2ccc(O)c(O)c2)oc2cc(O)cc(O)c12"
  quantity kind: "Free-thaw stability: Accuracy"
  reported measurement: 4.62
- compound: "O=c1cc(-c2ccc(O)c(O)c2)oc2cc(O)cc(O)c12"
  quantity kind: "Free-thaw stability: Accuracy"
  reported measurement: 4.35
- compound: "C[C@@H]1O[C@@H](O[C@@H]2[C@@H](O)[C@H](OCCc3ccc(O)c(O)c3)O[C@H](CO)[C@H]2OC(=O)/C=C/c2ccc(O)c(O)c2)[C@H](O)[C@H](O)[C@H]1O [Acteoside, acteoside]"
  quantity kind: "Free-thaw stability: Accuracy"
  reported measurement: 5.21
- compound: "C[C@@H]1O[C@@H](OC[C@H]2O[C@@H](Oc3c(-c4ccc(O)c(O)c4)oc4cc(O)cc(O)c4c3=O)[C@H](O)[C@@H](O)[C@@H]2O)[C@H](O)[C@H](O)[C@H]1O"
  quantity kind: "Free-thaw stability: Accuracy"
  reported measurement: 4.58

--- query ---
Problem: Quick check: Free-thaw stability: Accuracy of COc1ccc(-c2cc(=O)c3c(O)cc(O)cc3o2)cc1 ?
Solution: 6.21

* * *

type: in vivo, Sprague-Dawley (SD) rats; details: male, Sprague-Dawley, rat, plasma, po, 15 mL kg^−1
quantity kind: Cmax (µg/mL)
Note: unit µg/mL is implicit; provide only the numeric part.

Problem: I would be grateful if you could share the reported Cmax for O=c1c(O)c(-c2ccc(O)c(O)c2)oc2cc(O)cc(O)c12 [Quercetin, quercetin] .
Solution: 0.0201

Problem: Entry C[C@@H]1O[C@@H](O[C@@H]2[C@@H](O)[C@H](OCCc3ccc(O)c(O)c3)O[C@H](CO)[C@H]2OC(=O)/C=C/c2ccc(O)c(O)c2)[C@H](O)[C@H](O)[C@H]1O [Acteoside, acteoside] : reported Cmax = ?
Solution: 0.65

Problem: Name the reported Cmax value associated with the compound O=c1cc(-c2ccc(O)cc2)oc2cc(O)cc(O)c12 [Apigenin, apigenin]
Solution: 0.146

Problem: I am curious: what Cmax value has been reported for O=c1cc(-c2ccc(O)c(O)c2)oc2cc(O)cc(O)c12 [Luteolin, luteolin] ?
Solution: 0.0774

Problem: Please look up its Cmax: COc1ccc(-c2cc(=O)c3c(O)cc(O)cc3o2)cc1 [Acacetin, acacetin]
Solution: 0.0319

Problem: Returns the measured Cmax for the input compound. Input: C[C@@H]1O[C@@H](OC[C@H]2O[C@@H](Oc3c(-c4ccc(O)c(O)c4)oc4cc(O)cc(O)c4c3=O)[C@H](O)[C@@H](O)[C@@H]2O)[C@H](O)[C@H](O)[C@H]1O [Rutin]
Solution: 0.131

* * *

Measured Long-tern stability: Measured concentration accompanies every entry in the list below.
test: Stability of the analytes in rat plasma QC samples; format: in vitro ADME; details: −20 °C for 21 d, medium QC spiked concentration
Numeric answer only, unit ng/mL assumed.

- compound: "C[C@@H]1O[C@@H](O[C@@H]2[C@@H](O)[C@H](OCCc3ccc(O)c(O)c3)O[C@H](CO)[C@H]2OC(=O)/C=C/c2ccc(O)c(O)c2)[C@H](O)[C@H](O)[C@H]1O [Acteoside, acteoside]"
  reported measurement: 540.92
- compound: "COc1ccc(-c2cc(=O)c3c(O)cc(O)cc3o2)cc1"
  reported measurement: 26.53
- compound: "O=c1cc(-c2ccc(O)cc2)oc2cc(O)cc(O)c12"
  reported measurement: 124.51
- compound: "C[C@@H]1O[C@@H](OC[C@H]2O[C@@H](Oc3c(-c4ccc(O)c(O)c4)oc4cc(O)cc(O)c4c3=O)[C@H](O)[C@@H](O)[C@@H]2O)[C@H](O)[C@H](O)[C@H]1O"
  reported measurement: 107.37

Problem: Data request, read-out Long-tern stability: Measured concentration, for O=c1c(O)c(-c2ccc(O)c(O)c2)oc2cc(O)cc(O)c12
Solution: 17.27

Problem: Find the recorded Long-tern stability: Measured concentration belonging to O=c1cc(-c2ccc(O)c(O)c2)oc2cc(O)cc(O)c12 and report it.
Solution: 67.34

* * *

assay: Stability of the analytes in rat plasma QC samples; format: in vitro ADME; details: relative error, 3 free thaw cycles, low QC spiked concentration
Rule: Free-thaw stability: Accuracy under 4% gives not fulfilled, otherwise fulfilled.

Reference set, count: 4
- molecule: "O=c1cc(-c2ccc(O)cc2)oc2cc(O)cc(O)c12 [Apigenin, apigenin]"
  qualitative label: "not fulfilled"
- molecule: "C[C@@H]1O[C@@H](O[C@@H]2[C@@H](O)[C@H](OCCc3ccc(O)c(O)c3)O[C@H](CO)[C@H]2OC(=O)/C=C/c2ccc(O)c(O)c2)[C@H](O)[C@H](O)[C@H]1O [Acteoside, acteoside]"
  qualitative label: "not fulfilled"
- molecule: "O=c1c(O)c(-c2ccc(O)c(O)c2)oc2cc(O)cc(O)c12 [Quercetin, quercetin]"
  qualitative label: "fulfilled"
- molecule: "O=c1cc(-c2ccc(O)c(O)c2)oc2cc(O)cc(O)c12 [Luteolin, luteolin]"
  qualitative label: "fulfilled"

Let's switch to this molecule now.
Problem: Record C[C@@H]1O[C@@H](OC[C@H]2O[C@@H](Oc3c(-c4ccc(O)c(O)c4)oc4cc(O)cc(O)c4c3=O)[C@H](O)[C@@H](O)[C@@H]2O)[C@H](O)[C@H](O)[C@H]1O [Rutin] ; criterion: Free-thaw stability: Accuracy no lower than 4%. Met?
Solution: not fulfilled

* * *

experiment: Stability of the analytes in rat plasma QC samples; assay type: in vitro ADME; conditions: room temperature for 8 h, medium QC spiked concentration
Reported Short-tern stability: Measured concentration values for the following compounds.
Quick reminder: number only, in ng/mL, skip the unit.

- compound: "C[C@@H]1O[C@@H](OC[C@H]2O[C@@H](Oc3c(-c4ccc(O)c(O)c4)oc4cc(O)cc(O)c4c3=O)[C@H](O)[C@@H](O)[C@@H]2O)[C@H](O)[C@H](O)[C@H]1O"
  u: "ng/mL"
  reported measurement: 108.48
- compound: "COc1ccc(-c2cc(=O)c3c(O)cc(O)cc3o2)cc1"
  u: "ng/mL"
  reported measurement: 27.31
- compound: "O=c1cc(-c2ccc(O)cc2)oc2cc(O)cc(O)c12"
  u: "ng/mL"
  reported measurement: 123.78
- compound: "C[C@@H]1O[C@@H](O[C@@H]2[C@@H](O)[C@H](OCCc3ccc(O)c(O)c3)O[C@H](CO)[C@H]2OC(=O)/C=C/c2ccc(O)c(O)c2)[C@H](O)[C@H](O)[C@H]1O [Acteoside, acteoside]"
  u: "ng/mL"
  reported measurement: 548.82

Problem: Would you kindly share the measured Short-tern stability: Measured concentration for O=c1c(O)c(-c2ccc(O)c(O)c2)oc2cc(O)cc(O)c12 ?
Solution: 17.12

Problem: // query Short-tern stability: Measured concentration value for entry O=c1cc(-c2ccc(O)c(O)c2)oc2cc(O)cc(O)c12
Solution: 64.88

* * *

assay type: in vivo, Sprague-Dawley (SD) rats; details: male, Sprague-Dawley, rat, plasma, po, 15 mL kg^−1
quantity kind: AUC(0-t) (ng·h/mL)
Field format: number, assumed ng·h/mL, no unit text.

- compound: "COc1ccc(-c2cc(=O)c3c(O)cc(O)cc3o2)cc1 [Acacetin, acacetin]"
  AUC(0-t) (ng·h/mL): 15.3
- compound: "O=c1c(O)c(-c2ccc(O)c(O)c2)oc2cc(O)cc(O)c12 [Quercetin, quercetin]"
  AUC(0-t) (ng·h/mL): 9.31

Next:
Problem: I have this compound here, C[C@@H]1O[C@@H](OC[C@H]2O[C@@H](Oc3c(-c4ccc(O)c(O)c4)oc4cc(O)cc(O)c4c3=O)[C@H](O)[C@@H](O)[C@@H]2O)[C@H](O)[C@H](O)[C@H]1O [Rutin] , and I need its recorded AUC(0-t).
Solution: 50.7
